- tgt: SARS-CoV-2 receptor-binding domain fused to hIgG1 Fc (SARS-CoV-2 (Wuhan/Victoria), UniProt P0DTC2 330-532)
- test name: SPR, trimer analyte, RBD ligand
parameter: T1/2 (h)
Write down the numeric answer in h and omit the unit.

Need T1/2 of H3 trimer (VHH) QVQLVESGGGLVKTGGSLRLSCAASGRTFSTYSMGWFRQAPGKEREFVAGMRWTGSSTFYSDSVKGRFTVSRNNAKDTVYLHMNSLKPEDTAVYYCAITTIVRAYYTEYTEADFGSWGQGTQVTVSSGAVLAPQVQLVESGGGLVKTGGSLRLSCAASGRTFSTYSMGWFRQAPGKEREFVAGMRWTGSSTFYSDSVKGRFTVSRNNAKDTVYLHMNSLKPEDTAVYYCAITTIVRAYYTEYTEADFGSWGQGTQVTVSSGSGSGSQVQLVESGGGLVKTGGSLRLSCAASGRTFSTYSMGWFRQAPGKEREFVAGMRWTGSSTFYSDSVKGRFTVSRNNAKDTVYLHMNSLKPEDTAVYYCAITTIVRAYYTEYTEADFGSWGQGTQVTVSS , thanks.
5.82
